- Test system: OV90
- TEST SUMMARY: drug sensitivity score (DSS) from 5-point dose-response viability curve (DSS (area-under-curve based score)); higher = more sensitive (stronger growth inhibition or killing); extreme values may be limits of the assay
- CONDITION SET: exposure time: 72 h; concentration range: 5 concentrations over 10,000-fold range
Decision: drug sensitivity score compared against 10; not below it gives Y, below it gives N.

CN(C)C/C=C/C(=O)Nc1cc2c(Nc3ccc(F)c(Cl)c3)ncnc2cc1O[C@H]1CCOC1 [Afatinib]: N
CNc1ncc2cc(-c3cc(NC(=O)NCCC(C)(C)C)c(F)cc3C)c(C)nc2n1: Y
COc1ncc(-c2ccc3nccc(-c4ccnnc4)c3c2)cc1NS(=O)(=O)c1ccc(F)cc1F [Omipalisib]: N
C=CC(=O)N1CC/C(=C\c2ccc(F)c([N+](=O)[O-])c2)C(=O)/C(=C/c2ccc(F)c([N+](=O)[O-])c2)C1 [VLX1570]: Y
Cc1cc(Nc2cc(N3CCN(C)CC3)nc(/C=C/c3ccccc3)n2)n[nH]1 [ENMD-2076]: N
Cn1cnc2c(F)c(Nc3ccc(Br)cc3F)c(C(=O)NOCCO)cc21 [Binimetinib]: Y
Clc1ccc(Nc2nnc(Cc3ccncc3)c3ccccc23)cc1 [Vatalanib]: N
CCCCCCCCc1ccc(CCC(N)(CO)CO)cc1 [Fingolimod]: N

----------
- Test system: OV90
- TEST SUMMARY: drug sensitivity score (DSS) from 5-point dose-response viability curve (DSS (area-under-curve based score)); higher = more sensitive (stronger growth inhibition or killing); extreme values may be limits of the assay
- CONDITION SET: exposure time: 72 h; concentration range: 5 concentrations over 10,000-fold range
Items are presented alongside their recorded drug sensitivity score.
ENDPOINT: drug sensitivity score

CN[C@@H]1C[C@H]2O[C@@](C)([C@@H]1OC)n1c3ccccc3c3c4c(c5c6ccccc6n2c5c31)C(=O)N[C@H]4O: 22.8
C=C1C[C@@H]2CC[C@@]34C[C@H]5O[C@H]6[C@@H](O3)[C@H]3O[C@H](CC[C@@H]3O[C@H]6[C@H]5O4)CC(=O)C[C@@H]3[C@@H](OC)[C@@H](C[C@H](O)CN)O[C@H]3C[C@H]3O[C@@H](CC[C@@H]1O2)C[C@@H](C)C3=C: 20.3
Cc1nc(C(=O)NCC(=O)O)c(O)c2ccc(Oc3ccccc3)cc12: 0
CN1CCN(C2CCC(n3cc(-c4ccc(Oc5ccccc5)cc4)c4c(N)ncnc43)CC2)CC1 (centres undefined): 10.3

----------
Items are presented alongside their recorded drug sensitivity score.
- Test system: JHOS2
- TEST SUMMARY: drug sensitivity score (DSS) from 5-point dose-response viability curve (DSS (area-under-curve based score)); higher = more sensitive (stronger growth inhibition or killing); extreme values may be limits of the assay
- CONDITION SET: exposure time: 72 h; concentration range: 5 concentrations over 10,000-fold range
ENDPOINT: drug sensitivity score

O=C(NOCCO)c1ccc2cncn2c1Nc1ccc(I)cc1F: 0.6
Cc1cccc(-c2[nH]c(CNc3ccccc3F)nc2-c2ccc3ncnn3c2)n1: 0
O=C(c1ccc(OCCN2CCCCC2)cc1)c1c(-c2ccc(O)cc2)sc2cc(O)ccc12: 1
Cn1cnc2c(F)c(Nc3ccc(Br)cc3F)c(C(=O)NOCCO)cc21: 1.5
C[C@@H]1CN(C(=O)c2ccc(NC(=O)c3cc(O[C@H](C)c4c(Cl)ccc(F)c4Cl)c(N)nn3)cc2)C[C@H](C)N1: 0
Cc1cccc(CC(=O)N2CCc3c2ccc(-c2cn(C)c4ncnc(N)c24)c3F)n1: 0
CNC(=O)CN1CCC(Oc2cc3c(Nc4cccc(Cl)c4F)ncnc3cc2OC)CC1: 0
Cc1ccc(C(=O)Nc2cccc(C(F)(F)F)c2)cc1Nc1nc(-c2cccnc2)nc2c1cnn2C: 2.1
